tested on: HT29 colon; assay: NCI-60 one-dose screen, 48 h; conditions: 10 µM unless noted
This is part of a sample that, as a whole, favours compounds with a hit. Of some 83,000 tested, about 20% had one in any assay. Activity calls are given as the source filed them. The calls were made as follows: active = growth percent below 10; inactive = the rest.
Outcomes: active, inactive

INSERT INTO measurements (input_smiles, assigned_class) VALUES
  ('Cc1ccc2cnc(N)c(C#Cc3cncc(C(=O)Nc4ccc(CN5CCN(C)CC5)c(C(F)(F)F)c4)c3)c2c1', 'active'),
  ('Nc1c(C(=O)Nc2ccccc2Cl)sc2nc3c(cc12)CCCCCC3', 'active'),
  ('Cc1cc(=O)oc2cc(Oc3nc(-c4ccc(Cl)cc4)cn4c(-c5ccc(Cl)cc5)cnc34)ccc12', 'inactive'),
  ('Cl/C(=N\Nc1ccccc1)c1ccccc1', 'inactive'),
  ('Brc1cccc(-c2nc(-c3ccc4c(c3)OCCO4)co2)c1', 'inactive'),
  ('COc1cccc(NC(=O)c2sc3nc4c(cc3c2N)CN(Cc2ccccc2)CC4)c1', 'inactive');

---

system: BT-549 breast; test: NCI-60 one-dose screen, 48 h; settings: 10 µM unless noted
The panel holds about 83,000 compounds, 20% with a hit somewhere; the sample as a whole holds those more often. The source made the active and inactive calls. The calls were made as follows: active = growth percent below 10; inactive = the rest.
Outcomes: True for active, False for inactive

INSERT INTO measurements (molecule, assigned_class) VALUES
  ('CN1CCN(Cc2ccc(NC(=O)c3cncc(C#Cc4cncc5nccnc45)c3)cc2C(F)(F)F)CC1', 'False'),
  ('CCOc1ccc(Nc2nc(-c3c(C)nc4ncccn34)cs2)cc1', 'False'),
  ('COc1ccc2nc3cc(Cl)ccc3c(N3CCN(c4ccnc(N5CCOCC5)n4)CC3)c2c1', 'False'),
  ('CCOC(=O)C(C#N)C1CCCCC1 (configuration not stated)', 'False'),
  ('CCN(CC)CCCNc1cc(OC)cc2nc3cc(Cl)ccc3nc12', 'True'),
  ('CN(C)CC(=O)Nc1ccc(Cn2nnc3c2C(=O)c2nnn(Cc4ccc(NC(=O)CN(C)C)cc4)c2C3=O)cc1', 'True'),
  ('COc1ccc(N(Cc2cc(OC)c(OC)c(OC)c2)C2OC(=O)c3ccccc32)cc1 (configuration not stated)', 'False'),
  ('COc1ccc2c(c1)C(=O)/C(=C/c1cccc(OCC(=O)Nc3nc4c(s3)CCCC4)c1)O2', 'True'),
  ('C=C1CCC2C3(C)COC(c4ccc(OC)cc4Br)OC3CCC2(C)C1/C=C/C1=CCOC1=O (configuration not stated)', 'False'),
  ('O=C(CO[N+](=O)[O-])Nc1ccc(C(=O)/C=C/c2ccc(Cl)cc2)cc1', 'False'),
  ('COc1cccc(/C=C2/C(=O)N(Cc3ccco3)SC2=S)c1OC', 'False'),
  ('COc1ccccc1-c1ccc2c(N)c(C(=O)c3ccc4c(c3)OCO4)sc2n1', 'False');

---

test system: HCT-116 colon; experiment: NCI-60 one-dose screen, 48 h (100 = growth as untreated, 0 = no growth, -100 = all killed); conditions: 10 µM unless noted
Compounds without any hit were thinned out: in the full panel of roughly 83,000, 20% have a hit.
Below, each of the compounds is paired with its reported growth value.
Test readout: growth (%)

INSERT INTO measurements (compound, measured_target, recorded_value) VALUES
  ('CNCCCn1c2c(c3ccc([N+](=O)[O-])cc3c1=O)C(=O)c1cc(OC)cnc1-2', 'HCT-116 colon', -53.9),
  ('Cc1cc(-c2nc3ccccc3s2)ccc1NC(=O)COc1ccc(Cl)cc1', 'HCT-116 colon', 76.7),
  ('CC1(C)CC(C(=O)OCCCCCCCCCCC[P+](c2ccccc2)(c2ccccc2)c2ccccc2)C(C)(C)N1O (stereo not given)', 'HCT-116 colon', -8.91),
  ('NCCN1CCN(c2nccc(-c3ccc4ccccc4c3)n2)CC1', 'HCT-116 colon', 3.52),
  ('Nc1c(C(=O)Nc2cccc3c2OCCO3)sc2nc3c(cc12)C(=O)CCC3', 'HCT-116 colon', 33.8);
